Tested on: ACHN renal
ASSAY_COMMENT: NCI tumour cell line growth inhibition, 48 h
RECORDED_ENDPOINT: TGI

Requested read-out: TGI. Entry: CN(C)CCNC(=O)c1ccc2ccc3cccnc3c2n1
97.3 µM

Requested read-out: TGI. Entry: CCCOC(=O)N[C@H]1CCc2c(Br)c(OC)c(OC)c(OC)c2-c2ccc(SC)c(=O)cc21
30.4 µM

Requested read-out: TGI. Entry: COC(=O)c1cnc2nc(N3CCOCC3)[nH]n2c1=O
> 100 µM

Requested read-out: TGI. Entry: Brc1c[n+](Cc2ccc3ccccc3c2)cn1Cc1ccc2ccccc2c1
25.5 µM

Requested read-out: TGI. Entry: C=CC1CC12C(=O)C1OC2(C)C2C(=O)c3ccccc3C(=O)C12 (stereo not drawn)
> 100 µM

Requested read-out: TGI. Entry: COc1ccc(-n2sc3ncc(-c4ccccc4)cc3c2=O)cc1
48.3 µM

Requested read-out: TGI. Entry: ClCCN(CCCl)Cc1ccc(Nc2ccnc3cc(Cl)ccc23)cc1
> 100 µM

Requested read-out: TGI. Entry: Cc1cccc(C)c1NC(=O)CCC(=O)NNC(=O)c1cc(O)c2ccccc2c1
> 100 µM

Requested read-out: TGI. Entry: Nc1c(Br)cc(-c2cc(Br)c(N)c(Br)c2)cc1Br
> 100 µM

Requested read-out: TGI. Entry: CC12CC3c4ccccc4CN1C3(c1ccccc1)OC2=O (stereo not drawn)
> 100 µM

====

System: HL-60(TB) leukemia
ASSAY_COMMENT: NCI tumour cell line growth inhibition, 48 h
Overview of reported GI50 across a group of compounds:

Requested read-out: GI50. Entry: COc1ccc(-c2nc(-c3nc4ccc(F)cc4[nH]3)cc3c2[nH]c2ccccc23)cc1
2.83 µM

Requested read-out: GI50. Entry: COc1ccccc1-c1cc2c3c(nc4ccccc42)C(=O)c2cccnc2-c3n1
> 100 µM

Requested read-out: GI50. Entry: COCCNCC(O)Cn1c2ccc(Cl)cc2c2cc(Cl)ccc21 (stereo not given)
2.05 µM

Requested read-out: GI50. Entry: CCN(CC)c1ccc(NC(C(=O)c2ccccc2)c2ccccc2)cc1 (stereo not given)
3.24 µM

Requested read-out: GI50. Entry: COC1=CC(c2ccc[nH]2)=N/C1=C\c1[nH]c(C)c(C(=O)CCC(=O)Oc2ccc3c(c2)CCC2C3CC[C@]3(C)C(=O)CC[C@@H]23)c1C (stereo not given in full)
50.2 µM

====

Test system: RPMI-8226 leukemia
ASSAY_COMMENT: NCI tumour cell line growth inhibition, 48 h; in the data active = GI50 below about 0.43 µM; inactive = the rest
Select the correct class. Options are t for active, f for inactive and nothing else.

COc1ccc2c(c1)Oc1nc(N)c(C#N)c(N)c1C2Sc1ccc(SC)cc1 (centres undefined) :: f
O=C1Nc2ccc(Cl)cc2/C1=C\c1c(-c2ccc(F)cc2)nc2ccccn12 :: f
[Cu+2].[Cu+2].[O-]c1ccccc1C=Nc1ccccc1[O-].[O-]c1ccccc1C=Nc1ccccc1[O-] :: f

Kindly consider the entry below.
Recorded test call requested for C[C@@H]1O[C@@H](O[C@H]2C[C@@H](O)[C@]3(CO)C4C(CC[C@]3(O)C2)[C@@]2(O)CC[C@H](C3=CC(=O)OC3)[C@@]2(C)C[C@H]4O)[C@H](O)[C@H](O)[C@H]1O (some centres undefined)
t
